# credit: the supplement of paper PMC6555819

Documented PBM binding z-score across a set of sequences
- Tested on: PPARg:RXRa IVT, anti-PPARg (NR concentration 270 nM, RXRa partner concentration 90 nM)
- Run Description: PBM binding z-score (relative to random genomic background probes); higher = stronger binding; sequences stand for … in GC…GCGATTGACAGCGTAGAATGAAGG

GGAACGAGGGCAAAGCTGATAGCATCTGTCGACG 2.81

Problem: Quick one: PBM binding z-score of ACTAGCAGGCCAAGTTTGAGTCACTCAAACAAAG ?
Solution: 0.193

Problem: Sample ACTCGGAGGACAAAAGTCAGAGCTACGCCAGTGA — what was its PBM binding z-score?
Solution: -0.114

Problem: I'd like to know its PBM binding z-score. The sequence in question is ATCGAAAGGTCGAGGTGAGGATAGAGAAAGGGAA
Solution: 2.41

Problem: Data request, read-out PBM binding z-score, for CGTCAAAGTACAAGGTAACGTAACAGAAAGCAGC
Solution: 0.638

###

Parameter PBM binding z-score: see the listing below.
- System: PPARg:RXRa (NR concentration 180 nM, RXRa partner concentration 90 nM)
- Run Description: PBM binding z-score (relative to random genomic background probes); higher = stronger binding; sequences stand for … in GC…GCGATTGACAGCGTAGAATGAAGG
Respond numerically, and do not add a unit to the figure.

A selection of reference data follows.
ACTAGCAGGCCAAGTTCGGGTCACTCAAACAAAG 0.431
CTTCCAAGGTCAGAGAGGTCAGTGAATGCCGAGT 3.44
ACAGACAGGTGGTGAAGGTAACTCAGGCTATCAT 0.473
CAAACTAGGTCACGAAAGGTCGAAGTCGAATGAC 9.65
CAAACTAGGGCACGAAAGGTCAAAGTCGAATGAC 8.39
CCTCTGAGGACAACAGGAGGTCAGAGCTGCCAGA 0.389
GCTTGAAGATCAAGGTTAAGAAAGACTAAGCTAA 0.0751
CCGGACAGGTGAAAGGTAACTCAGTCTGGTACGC 4.79

Problem: Which PBM binding z-score value belongs to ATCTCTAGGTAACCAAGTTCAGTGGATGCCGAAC ?
Solution: 0.437

Problem: Look up PBM binding z-score: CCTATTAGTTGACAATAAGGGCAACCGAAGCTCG
Solution: 0.511

###

- System: PPARg homodimer (NR concentration 180 nM)
- Run Description: PBM binding z-score (relative to random genomic background probes); higher = stronger binding; sequences stand for … in GC…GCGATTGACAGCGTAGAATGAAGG
Hi, to clarify the labels: criterion met covers PBM binding z-score from 1 upward, criterion not met covers anything below 1.

Observe how each entry below is paired with its result.
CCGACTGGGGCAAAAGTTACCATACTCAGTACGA criterion not met
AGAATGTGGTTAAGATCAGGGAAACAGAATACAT criterion not met
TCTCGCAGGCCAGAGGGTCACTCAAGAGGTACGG criterion not met
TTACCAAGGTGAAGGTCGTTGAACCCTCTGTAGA criterion not met
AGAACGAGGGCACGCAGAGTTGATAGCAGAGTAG criterion not met
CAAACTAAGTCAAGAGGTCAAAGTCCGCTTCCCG criterion met

Problem: Does the reported PBM binding z-score for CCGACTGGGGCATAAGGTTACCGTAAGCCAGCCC fall at or above the 1 mark?
Solution: criterion not met

Problem: Can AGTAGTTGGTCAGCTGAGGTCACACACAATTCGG be said to have PBM binding z-score at or above 1?
Solution: criterion met

Problem: // inclusive: PBM binding z-score at least 1? input: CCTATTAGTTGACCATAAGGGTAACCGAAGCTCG
Solution: criterion met

Problem: Is reported PBM binding z-score greater than or equal to 1 here: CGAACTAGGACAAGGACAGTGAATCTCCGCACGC
Solution: criterion not met

###

- Tested on: FXR:RXRa (NR concentration 270 nM, RXRa partner concentration 90 nM)
- Run Description: PBM binding z-score (relative to random genomic background probes); higher = stronger binding; sequences stand for … in GC…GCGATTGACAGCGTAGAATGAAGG
Label scheme for PBM binding z-score: lower than 0.9 is class 0, 0.9 and above is class 1.

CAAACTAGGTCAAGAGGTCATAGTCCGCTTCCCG class 1
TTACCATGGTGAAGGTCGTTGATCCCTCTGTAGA class 1
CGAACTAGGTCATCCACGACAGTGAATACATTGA class 1
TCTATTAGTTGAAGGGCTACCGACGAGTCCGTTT class 1
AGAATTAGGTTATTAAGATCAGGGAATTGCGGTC class 0

Problem: In plain terms: is recorded PBM binding z-score at least 0.9 for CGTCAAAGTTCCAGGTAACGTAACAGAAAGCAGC ?
Solution: class 0

Problem: Check this sequence for PBM binding z-score at or above 0.9: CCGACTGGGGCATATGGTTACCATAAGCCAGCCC
Solution: class 0

###

- System: PPARg:RXRa DBDmut IVT, anti-RXR (DBD mutation: RXRa K156A/R161A, NR concentration 270 nM, RXRa partner concentration 90 nM)
- Run Description: PBM binding z-score (relative to random genomic background probes); higher = stronger binding; sequences stand for … in GC…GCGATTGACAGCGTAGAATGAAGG
Is PBM binding z-score at least 2? Then satisfied. If not, not satisfied.

Problem: Hi team, for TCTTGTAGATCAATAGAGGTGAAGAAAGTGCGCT , is the recorded PBM binding z-score at or above 2?
Solution: satisfied

Problem: Dear colleague, could you confirm whether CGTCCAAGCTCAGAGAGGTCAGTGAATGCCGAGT has PBM binding z-score at or above 2?
Solution: not satisfied

Problem: Does PBM binding z-score meet or surpass 2 for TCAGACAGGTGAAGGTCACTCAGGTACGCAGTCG ?
Solution: satisfied

Problem: Dear colleague, could you confirm whether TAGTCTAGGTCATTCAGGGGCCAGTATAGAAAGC has PBM binding z-score at or above 2?
Solution: satisfied

Problem: Determine whether this sequence has PBM binding z-score no lower than 2: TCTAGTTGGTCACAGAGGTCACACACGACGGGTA
Solution: satisfied

Problem: Hi, just wondering whether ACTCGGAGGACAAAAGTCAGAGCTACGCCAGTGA shows PBM binding z-score of 2 or higher.
Solution: not satisfied

Problem: Can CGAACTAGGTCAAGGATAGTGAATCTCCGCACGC be said to have PBM binding z-score at or above 2?
Solution: satisfied

Problem: hey, is PBM binding z-score for this one >= 2? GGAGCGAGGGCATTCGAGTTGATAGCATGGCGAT
Solution: not satisfied

Problem: Is it the case that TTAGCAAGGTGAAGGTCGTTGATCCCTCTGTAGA has PBM binding z-score reaching or exceeding 2?
Solution: not satisfied

Problem: Is PBM binding z-score at least 2? Consider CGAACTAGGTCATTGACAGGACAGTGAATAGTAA
Solution: satisfied

###

- Test system: LXRb homodimer (NR concentration 270 nM)
- Run Description: PBM binding z-score (relative to random genomic background probes); higher = stronger binding; sequences stand for … in GC…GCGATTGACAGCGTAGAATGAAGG
Classification field. Basis: PBM binding z-score. Definitions: I = under -0.4, II = from -0.4 up to 0.4, III = 0.4 and over

Look over these answered cases.
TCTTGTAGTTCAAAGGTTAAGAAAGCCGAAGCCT III
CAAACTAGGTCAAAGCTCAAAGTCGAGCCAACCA III
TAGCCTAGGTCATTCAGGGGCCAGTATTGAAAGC III

Continue with the next sequence.
Problem: # bin label for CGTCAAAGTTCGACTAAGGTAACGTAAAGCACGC
Solution: II

###

- Tested on: PPARa:RXRa (NR concentration 270 nM, RXRa partner concentration 90 nM)
- Run Description: PBM binding z-score (relative to random genomic background probes); higher = stronger binding; sequences stand for … in GC…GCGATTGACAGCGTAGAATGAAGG
Label not met if PBM binding z-score falls below 1; label met in every other case.

Some entries whose results are on file:
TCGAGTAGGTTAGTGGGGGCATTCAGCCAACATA met
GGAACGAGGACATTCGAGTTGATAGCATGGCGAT not met
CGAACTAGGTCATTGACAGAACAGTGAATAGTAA met
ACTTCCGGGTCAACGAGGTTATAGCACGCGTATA met
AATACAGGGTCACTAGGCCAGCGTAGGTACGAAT met

Problem: Exam item: decide whether the reported PBM binding z-score for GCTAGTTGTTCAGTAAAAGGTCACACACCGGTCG is at least 1.
Solution: met

Problem: Please indicate if the recorded PBM binding z-score for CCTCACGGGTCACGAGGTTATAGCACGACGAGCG meets or exceeds 1.
Solution: met

Problem: Tell me whether PBM binding z-score is at least 1 here: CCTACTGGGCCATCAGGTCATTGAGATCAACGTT
Solution: met

Problem: Does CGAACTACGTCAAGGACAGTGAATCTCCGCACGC have a reported PBM binding z-score of at least 1?
Solution: not met

Problem: // inclusive: PBM binding z-score at least 1? input: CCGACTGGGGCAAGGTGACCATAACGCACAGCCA
Solution: not met

Problem: Determine whether this sequence has PBM binding z-score no lower than 1: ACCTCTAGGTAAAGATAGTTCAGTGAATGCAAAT
Solution: not met

Problem: Confirm if PBM binding z-score reported for the sequence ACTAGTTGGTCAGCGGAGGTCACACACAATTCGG is 1 or above.
Solution: met

Problem: Is the recorded value of PBM binding z-score equal to or greater than 1 for this sequence? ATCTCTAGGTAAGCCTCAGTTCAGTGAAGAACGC
Solution: not met

Problem: Check if PBM binding z-score >= 1 (inclusive). Item: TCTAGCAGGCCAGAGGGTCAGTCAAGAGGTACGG
Solution: met

Problem: Check if PBM binding z-score >= 1 (inclusive). Item: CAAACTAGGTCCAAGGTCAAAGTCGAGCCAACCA
Solution: met
